# SYSTEM UNDER TEST: Nucleotide-binding oligomerization domain-containing protein 2 (Homo sapiens, UniProt Q9HC29)
# PROTOCOL TEXT: inhibition of NOD2-driven NF-kB reporter – cell-based, luminescence, uHTS, HEK293 (AID 1566)
# Type: functional
Activity calls are given as the source filed them.
Hi there, use one of these labels in your reply, thanks! active, inactive

As a guide, the following entries are already answered.
COc1ccc(-n2ncc3c(N(C)C4CCCCC4)ncnc32)cc1 | inactive
CCc1ccc(OCC(=O)Nc2ccc(-c3cc4ccccc4oc3=O)c(OC)c2)cc1 | active
O=C(Nc1nc(-c2ccccn2)cs1)c1ccc(Cl)s1 | inactive

Lab log entry: `C/C(Cn1nnc([N+](=O)[O-])n1)=N\NC(=O)c1ccc(Cl)c(Cl)c1` — outcome as called in the assay?
active

---

# PROTOCOL TEXT: viability of uninfected HEp-2 cells – cell-based, HTS, cytotoxicity control for RSV inhibitor project, dose response (AID 2410)
# Type: functional
# DETAILS: human respiratory syncytial virus
Activity calls are given as the source filed them.
REPORTED METRIC: CC50

Use these answered entries as a reference point.
COc1ccc(F)cc1C(=O)C1CCCN(C(=O)c2ccccc2N(C)C)C1 (centres undefined) | 28.1 µM (active)
CC(=O)/C(C#N)=C1\NC(=O)C(Cc2ccccc2)S1 (centres undefined) | 14.4 µM (active)
CC(=O)Oc1cc2c3c(c1)/C(=C1/SC(=S)NC1=O)C(=O)N3C(C)(C)C=C2C | 14.3 µM (active)

Please turn your attention to the following entry.
Recorded CC50 for `CCCCOc1ccc(CNC(=S)N/N=C/c2ccc(OC)c(OC)c2)cc1` , please?
41.2 µM (active)

---

// values below are reported IC50
# SYSTEM UNDER TEST: Genome polyprotein (dengue virus type 2, UniProt P29990)
# PROTOCOL TEXT: flavivirus cap methylation enzyme inhibition – biochemical, confirmation dose response, primary screen (AID 588689)
# Assay type: functional
Activity calls are given as the source filed them.

Recorded IC50 for `COc1cc(/C=C2\SC(=O)N(Cc3ccc(Cl)cc3)C2=O)cc([N+](=O)[O-])c1O` , please?
67.5 µM (active)

---

# SYSTEM UNDER TEST: Dual specificity protein phosphatase 3 (Homo sapiens, UniProt P51452)
# PROTOCOL TEXT: VHR phosphatase inhibition, dose response, selectivity assay for STEP inhibitor project, biochemical (AID 602374)
# Format: functional
# DETAILS: read-out: IC50_Mean
Activity calls are given as the source filed them.
REPORTED METRIC: IC50

Use these answered entries as a reference point.
NC(=O)C1(N2CCCCC2)CCN(C(=S)Nc2ccc(S(N)(=O)=O)cc2)CC1 | 811 nM (active)
O=C1NN(c2cccc(Br)c2)C(=O)/C1=C\c1ccc(N2CCOCC2)cc1 | 2550 nM (active)
O=C(COc1ccc(/C=N/NC(=O)c2ccc(O)cc2)cc1)Nc1cccc([N+](=O)[O-])c1 | 3060 nM (active)

Please turn your attention to the following entry.
Recorded IC50 for `NS(=O)(=O)c1ccc(NC(=S)N2CCC(Cc3ccccc3)CC2)cc1` , please?
1030 nM (active)

---

# SYSTEM UNDER TEST: Heat shock factor protein 1 (Mus musculus)
# PROTOCOL TEXT: decrease of HSF1-responsive luciferase luminescence – cell-based, NIH3T3, dose retest, confirmation (AID 2382);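 further: NIH3T3 fibroblasts with HSF1-driven luciferase reporter stressed by proteasome inhibitor MG132; luminescence from HSF1-driven luciferase expression after 8 hours of MG132 stress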
# Assay type: functional
Activity calls are given as the source filed them.
REPORTED METRIC: EC50

O=C1OC(NC(=O)c2ccccc2)C(n2cc(CO)nn2)=C1Cl (configuration not stated) | 35.7 µM (active)
COc1ccc(C(=O)NC(=S)NCCO)cc1Br | > 195 µM (not active)
Cc1ccc(S(=O)(=O)N2CCCC(C(=O)NCCc3ccc4c(c3)OCO4)C2)cc1 (configuration not stated) | > 195 µM (not active)
OCCNc1nc2nonc2nc1NCCO | > 195 µM (not active)
CC(=O)Nc1c(I)c(NC(C)=O)c(I)c(C(=O)O)c1I [DIATRIZOATE MEGLUMINE] | > 195 µM (not active)
COc1ccc(OCC(=O)N2CCN(c3cccc(C(F)(F)F)c3)CC2)cc1 | > 195 µM (not active)

Please turn your attention to the following entry.
Recorded EC50 for `CC/C(NNC(=O)c1ccccc1O)=C1/C(=O)NC(=O)N(Cc2ccccc2)C1=O` , please?
30.2 µM (active)

---

Notes on AC50 obtained with Cytochrome P450 2C9 (Homo sapiens, UniProt P11712).

Use these answered entries as a reference point.
CCc1ccc2c(-c3cccc(Cl)c3)nc(=O)n(CC)c2n1 | 39.8 µM (inconclusive)
CN1CCN(c2ncc3nc(-c4cn(C)c5ccccc45)c(=O)n(C)c3n2)CC1 | 12.6 µM (inconclusive)
NC(=O)c1ccc(-c2ncc(-c3ccccc3)o2)cc1 | 2.51 µM (inconclusive)

# query: AC50 | item `O=C(NCc1nnc(S)n1-c1ccccc1)c1ccc(S(=O)(=O)N2CCOCC2)cc1` | system: Cytochrome P450 2C9 (Homo sapiens, UniProt P11712)
14.1 µM (inconclusive)

# query: AC50 | item `CC(C)(C)c1ccc(-c2nnc(SCc3ccc(Cl)cc3)n2-c2cccc(C(F)(F)F)c2)cc1` | system: Cytochrome P450 2C9 (Homo sapiens, UniProt P11712)
3.16 µM (inconclusive)

---

# SYSTEM UNDER TEST: Corticotropin-releasing factor receptor 2/Corticotropin-releasing factor-binding protein (Homo sapiens, UniProt P24387+Q13324)
# Sequence (Q13324 whole entry): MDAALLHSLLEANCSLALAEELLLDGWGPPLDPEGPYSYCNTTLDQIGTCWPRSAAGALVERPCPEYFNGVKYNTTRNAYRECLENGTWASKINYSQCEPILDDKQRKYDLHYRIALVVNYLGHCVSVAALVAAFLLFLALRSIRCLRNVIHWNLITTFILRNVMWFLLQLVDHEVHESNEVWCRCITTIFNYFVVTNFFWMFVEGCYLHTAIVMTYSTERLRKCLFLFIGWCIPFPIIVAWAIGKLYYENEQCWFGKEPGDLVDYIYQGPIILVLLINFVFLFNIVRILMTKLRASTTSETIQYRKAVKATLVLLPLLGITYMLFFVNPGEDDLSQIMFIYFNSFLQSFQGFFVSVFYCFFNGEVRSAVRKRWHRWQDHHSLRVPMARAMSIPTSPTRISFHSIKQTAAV
# Sequence (P24387 whole entry): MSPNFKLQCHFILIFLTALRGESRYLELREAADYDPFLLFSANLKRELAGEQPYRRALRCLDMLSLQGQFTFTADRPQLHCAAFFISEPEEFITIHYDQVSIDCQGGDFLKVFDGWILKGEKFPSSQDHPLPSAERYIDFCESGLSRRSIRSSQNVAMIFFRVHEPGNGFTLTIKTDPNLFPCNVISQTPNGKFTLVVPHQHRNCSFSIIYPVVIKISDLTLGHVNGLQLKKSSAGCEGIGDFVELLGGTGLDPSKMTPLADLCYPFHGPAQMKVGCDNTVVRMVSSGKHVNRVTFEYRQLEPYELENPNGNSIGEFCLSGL
# PROTOCOL TEXT: activators of CRF receptor 2 with binding protein – uHTS hits, confirmation (AID 602473)
# Assay type: functional
# DETAILS: read-out: EC50_Mean
Activity calls are given as the source filed them.
Hi there, use one of these labels in your reply, thanks! class 1 (active), class 0 (inactive)

Cc1ccccc1CNC(=O)c1ccccc1N | class 0
CC(=O)c1cc(NC(=O)c2cccc(C(F)(F)F)c2)c(=O)oc1/C=C/N(C)C | class 1

Now look at this entry.
Lab log entry: COc1ccccc1N1CCN(C2CCCCC2NS(=O)(=O)c2ccc(Cl)cc2)CC1 (stereo not drawn) — outcome as called in the assay?
class 1

---

# SYSTEM UNDER TEST: Calpain-2 catalytic subunit (Sus scrofa, UniProt P43367)
# PROTOCOL TEXT: m-calpain protease blockers, concentration series – biochemical, fluorogenic peptide substrate, dose response (AID 1420)
# Assay type: functional
The source made the active and inactive calls.
REPORTED METRIC: IC50

Use these answered entries as a reference point.
CCOC(=O)c1c(NC(=O)CSc2ncccn2)sc2c1CCN(Cc1ccccc1)C2 | 5.71 µM (not active)
COc1cc(N/C=C(\C(C)=O)c2ccccc2)cc(OC)c1 | > 50 µM (not active)

Recorded IC50 for `Cn1c(N)c(C(=O)COC(=O)CCC2CCCCC2)c(=O)n(C)c1=O` , please?
5.23 µM (active)

---

// values below are reported EC50
# SYSTEM UNDER TEST: Streptokinase A (Streptococcus pyogenes serotype M1, UniProt P10520)
# PROTOCOL TEXT: viability-normalized secreted streptokinase activity reduction – plasminogen activation absorbance, OD405, dose response (AID 1914);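 further: secreted streptokinase activity via plasminogen activation per viability signal from cell pellet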
# Type: functional, Streptococcus pyogenes M1 GAS
Activity calls are given as the source filed them.

Cc1cccc(OCCCOc2cccc3cccnc23)c1C | > 150 µM (not active)

Recorded EC50 for Cc1ccc(C(=O)C(c2ccccc2)N2Cc3ccccc3C2=N)cc1 (stereo unspecified) , please?
4.15 µM (active)

Recorded EC50 for `Cc1ccc(SCC(=O)N2c3ccccc3Sc3ccccc32)cc1` , please?
10.9 µM (active)

Recorded EC50 for c1ccc(N2N=C(c3cccs3)CC2c2ccco2)cc1 (stereo unspecified) , please?
40.1 µM (active)

Recorded EC50 for `CCCCn1c(=O)c(C(=O)NCCc2ccccc2)c(O)c2ccccc21` , please?
30.9 µM (active)

Recorded EC50 for `Nc1ccc2[nH]c(-c3ccc(Cl)cc3)nc2c1` , please?
> 150 µM (not active)

Recorded EC50 for `C=CCc1cccc(/C=N/NC(=O)C(=O)Nc2ccc(C)cc2)c1O` , please?
> 150 µM (not active)

Recorded EC50 for CC1=NN(c2nc3ccccc3[nH]2)C(=O)C1Cc1ccccc1 (stereo unspecified) , please?
> 150 µM (not active)

Recorded EC50 for `Cn1c(Sc2ccccc2Cl)c(C=O)c2ccccc21` , please?
32.3 µM (inconclusive)

Recorded EC50 for `Fc1ccc(-c2csc3ncnc(N4CCc5ccccc5C4)c23)cc1` , please?
6.92 µM (active)

Recorded EC50 for `O=C(Nc1cccc(Cl)c1N1CCCCC1)c1ccc2c(c1)OCCO2` , please?
> 150 µM (not active)

Recorded EC50 for `O=C(NNC(=S)NC(=O)c1ccc(Br)cc1)c1cccc([N+](=O)[O-])c1` , please?
> 150 µM (not active)

Recorded EC50 for `CCc1nc2c(cnn2-c2ccc(Cl)cc2)c(=O)n1-c1ccc(OC)cc1` , please?
> 150 µM (not active)

Recorded EC50 for `c1ccc(-c2nc(-c3nccc4ccccc34)oc2-c2ccccc2)cc1` , please?
5.23 µM (active)

Recorded EC50 for `O=c1c2ccccc2sn1-c1cc(S(=O)(=O)N2CCOCC2)ccc1N1CCOCC1` , please?
> 150 µM (not active)

Recorded EC50 for `Cc1c(Cl)cccc1-c1ccc(CNCc2ccccn2)o1` , please?
> 150 µM (not active)
